Data provenance: patent US8816076B2

- System: FPRL-1 (Homo sapiens)
- Construct: expressed in transfected cells
- Sequence (P25090 whole entry): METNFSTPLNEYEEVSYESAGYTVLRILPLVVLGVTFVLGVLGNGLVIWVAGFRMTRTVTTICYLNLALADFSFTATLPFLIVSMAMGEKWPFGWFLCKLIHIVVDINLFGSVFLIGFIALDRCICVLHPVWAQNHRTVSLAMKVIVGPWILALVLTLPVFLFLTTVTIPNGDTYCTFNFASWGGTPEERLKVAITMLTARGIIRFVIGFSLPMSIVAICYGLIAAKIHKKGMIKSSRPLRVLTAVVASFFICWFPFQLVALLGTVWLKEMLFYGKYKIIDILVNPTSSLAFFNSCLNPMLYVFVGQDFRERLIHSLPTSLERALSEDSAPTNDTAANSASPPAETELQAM
- Assay notes: Compound-induced calcium activity on FLIPR Tetra in CHO-Ga16 cells stably expressing FPRL1
- Type: cell-based
- Recorded conditions: relative efficacy

| Compound | FPRL-1 Ga16-CHO (Rel. eff.) |
| --- | --- |
| O=C(Nc1c(F)cc(Br)cc1F)N[C@@H](Cc1ccccc1)C(=O)O | (1.0) |
| O=C(Nc1ccc(Br)cc1F)NC(Cc1ccccn1)C(=O)O (stereo not drawn) | (1.0) |
| CSCCC(NC(=O)Nc1ccc(Br)cc1)C(=O)O (stereo not drawn) | (0.94) |
| O=C(Nc1ccc(Cl)cc1Cl)N[C@@H](Cc1ccccc1)C(=O)O | (1.0) |
| O=C(Nc1ccc(Br)cc1)NC(Cc1ccccn1)C(=O)O (stereo not drawn) | (1.0) |
| CC(C)C[C@H](NC(=O)Nc1ccc(C(F)(F)F)cc1)C(=O)O | (0.94) |
